This collection of values is drawn from patent US11440880B2.

Test system: RAW 264.7 cells
protocol: Cell viability (CellTiter 96 AQueous One) of LPS-challenged RAW 264.7 cells
Format: cell-based, mouse
Design: key: NS=not significant; a “+” sign=anti-inflammatory or increased cell numbers; a “−” sign=cell toxicity or pro-inflammatory
testContext: 3 μM
measurementType: Viability

Example entries begin here.
compound="Nc1cccc2c1CN(C1CCC(=O)NC1=O)C2=S (centres unmarked)" valueobserved=−
compound=Nc1ccc2c(c1)C(=O)N(C1=CNC(=O)CC1)C2 valueobserved=NS
compound="Nc1ccc2c(c1)C(=O)N(C1CC=CNC1=O)C2 (centres unmarked)" valueobserved=NS
compound=c1ccc2c(c1)CN=C2C1=NCc2ccccc21 valueobserved=+

Now for the compound whose Viability we want.
Memo: Nc1cccc2c1CN(C1CCC(=S)NC1=O)C2=S (centres unmarked) , reported Viability: NS

* * *

# fli1:EGFP angiogenesis n (survived/tested) annotations
System: fli1:EGFP zebrafish embryos (intersegmental vessel growth)
protocol: fli1:EGFP zebrafish embryo angiogenesis assay
Type: in vivo
Design: concentration or dose not given beside the values
testContext: embryos alive after 24 hours of exposure

Solved cases (4 shown):
compound="O=C1NC(=S)CCC1N1C(=O)c2cccc([N+](=O)[O-])c2C1=O (stereo not shown) [Compound 7]" valueobserved=28/33
compound="C[C@@H]1[C@@H](N2Cc3c(N)cccc3C2=O)C[C@H]2C[C@@H]1C2(C)C [Compound 93]" valueobserved=8/10
compound="C[C@H]1[C@H](N2Cc3c(N)cccc3C2=O)C[C@@H]2C[C@H]1C2(C)C [Compound 91]" valueobserved=5/18
compound="O=C1CCC(N2C(=O)c3cccc([N+](=O)[O-])c3C2=O)C(=O)N1 (stereo not shown) [Compound 5]" valueobserved=8/14

The compound identified as O=C1NC(=S)CCC1N1C(=O)c2ccccc2C1=S (stereo not shown) [Compound 2] registered its fli1:EGFP angiogenesis n (survived/tested) at 21/24

* * *

System: RAW 264.7 cells
protocol: Cell viability (CellTiter 96 AQueous One) of LPS-challenged RAW 264.7 cells
Format: cell-based, mouse
Set-up: key: NS=not significant; a “+” sign=anti-inflammatory or increased cell numbers; a “−” sign=cell toxicity or pro-inflammatory
testContext: 60 μM
measurementType: Viability

compound="O=C1NC(=S)CCC1N1C(=O)c2cccc([N+](=O)[O-])c2C1=O (stereo not drawn) [Compound 7]" measurementtype=Viability valueobserved=NS
compound="CC1(C)[C@@H]2CC[C@H](CN3C(=O)C4CC=CCC4C3=O)[C@H]1C2 (stereo partly drawn) [Compound 112]" measurementtype=Viability valueobserved=−
compound="CC1(C)[C@@H]2CC[C@@]1(C)[C@@H](N1C(=O)C3C4C=CC(C4)C3C1=O)C2 (stereo partly drawn) [Compound 116]" measurementtype=Viability valueobserved=NS

* * *

Below: a set of entries, each annotated with reported fli1:EGFP angiogenesis n (survived/tested).
System: fli1:EGFP zebrafish embryos (intersegmental vessel growth)
protocol: fli1:EGFP zebrafish embryo angiogenesis assay
Type: in vivo
testContext: embryos alive after 24 hours of exposure

molecule="Nc1ccc2c(c1)C(=O)N(C1CCC(=O)NC1=O)C2 (stereo not drawn)" systemundertest="fli1:EGFP zebrafish embryos (intersegmental vessel growth)" valueobserved=13/20
molecule="O=C1CCC(N2Cc3ccccc3C2=O)C(=O)N1CN1C(=S)c2ccccc2C1=S (stereo not drawn)" systemundertest="fli1:EGFP zebrafish embryos (intersegmental vessel growth)" valueobserved=7/25
molecule="O=C1c2ccccc2C(=S)N1C1CCC(=S)NC1=S (stereo not drawn)" systemundertest="fli1:EGFP zebrafish embryos (intersegmental vessel growth)" valueobserved=4/11
molecule="Nc1cccc2c1CN(C1CCC(=O)NC1=O)C2=S (stereo not drawn)" systemundertest="fli1:EGFP zebrafish embryos (intersegmental vessel growth)" valueobserved=6/17
molecule="O=C1NC(=S)CCC1N1C(=O)c2ccc(Cl)cc2C1=O (stereo not drawn)" systemundertest="fli1:EGFP zebrafish embryos (intersegmental vessel growth)" valueobserved=23/30

We next turn to a different molecule, shown below.
fli1:EGFP angiogenesis n (survived/tested) for O=C1c2ccccc2CN1C1C2CC3CC(C2)CC1C3 (stereo not drawn) is 9/20

* * *

Test system: mpo:GFP zebrafish embryos (neutrophil migration to the wound site)
protocol: mpo:GFP zebrafish fin-clip neutrophil migration (inflammation) assay
Type: in vivo
testContext: embryos survived/tested at the concentration given
Measured mpo:GFP inflammation n (survived/tested) accompanies every entry in the list below.

compound=O=C1c2cccc([N+](=O)[O-])c2CN1c1nc2ccc(C(F)(F)F)cc2s1 systemundertest="mpo:GFP zebrafish embryos (neutrophil migration to the wound site)" valueobserved=12/20

Entry O=C1NC(=S)CCC1N1C(=O)c2ccc(Cl)cc2C1=O (centres unmarked) ; mpo:GFP inflammation n (survived/tested) = 13/35

Nc1cccc2c1CN(C13CC4CC(CC(C4)C1)C3)C2=O yielded mpo:GFP inflammation n (survived/tested) of 5/21

# compound O=C1CCC(N2C(=O)c3ccc(OCc4ccccc4)cc3C2=O)C(=O)N1 (centres unmarked) ; its mpo:GFP inflammation n (survived/tested) = 8/14

Please fill in: mpo:GFP inflammation n (survived/tested) reported for O=C1CCC(N2Cc3ccccc3C2=O)C(=O)N1CSC(=S)N1CCCCC1 (centres unmarked) = 13/19

Notebook: O=C1c2cccc([N+](=O)[O-])c2CN1C12CC3CC(CC(C3)C1)C2 , mpo:GFP inflammation n (survived/tested) read as 5/11

Recorded mpo:GFP inflammation n (survived/tested) (compound O=C1NC(=S)CCC1N1C(=O)c2cccc([N+](=O)[O-])c2C1=O (centres unmarked) ): 29/29

compound O=C1CCC(N2C(=O)c3cccc([N+](=O)[O-])c3C2=O)C(=O)N1 (centres unmarked) , mpo:GFP inflammation n (survived/tested) observed: 28/28

Lab note: Nc1ccc2c(=O)n(C3CCC(=O)NC3=O)c(=O)oc2c1 (centres unmarked) gave mpo:GFP inflammation n (survived/tested) of 6/6

Consider O=C1c2cccc([N+](=O)[O-])c2C(=O)N1C1CCC(=S)NC1=S (centres unmarked) . Its measured mpo:GFP inflammation n (survived/tested) is 12/12

Item: FC(F)(F)c1ccnc(/N=C2/c3ccccc3CN2c2cc(C(F)(F)F)ccn2)c1 | mpo:GFP inflammation n (survived/tested): 6/15

get_value(item= O=C1c2cccc([N+](=O)[O-])c2CN1C1C2CC3CC(C2)CC1C3 (centres unmarked) , readout=mpo:GFP inflammation n (survived/tested)) returns 8/22

// sample Nc1cccc2c1CN(C1CCC(=O)NC1=O)C2=S (centres unmarked) , its mpo:GFP inflammation n (survived/tested) was 2/10

Form: compound = CC(N1Cc2c(N)cccc2C1=O)C12CC3CC(CC(C3)C1)C2 (centres unmarked) ; mpo:GFP inflammation n (survived/tested) = 9/21

Summary for this compound, O=C1c2ccccc2C(=S)N1C1CCC(=S)NC1=S (centres unmarked) : mpo:GFP inflammation n (survived/tested) is 19/23

mpo:GFP inflammation n (survived/tested) in this record for N=C1N/C(=N\C2CCC(=O)NC2=O)c2ccccc21 (centres unmarked) : 6/11

The value of mpo:GFP inflammation n (survived/tested) measured for the compound CC1(C)S[C@@H]2[C@H](N3C(=O)c4ccccc4C3=O)C(=O)N2[C@H]1C(=O)O turned out to be 8/15

Entry under test: O=C1c2ccccc2CN1CC12CC3CC(CC(C3)C1)C2 . Its mpo:GFP inflammation n (survived/tested) was 10/15

* * *

Test system: RAW 264.7 cells
protocol: Cell viability (CellTiter 96 AQueous One) of LPS-challenged RAW 264.7 cells
Format: cell-based, mouse
Parameters: key: NS=not significant; a “+” sign=anti-inflammatory or increased cell numbers; a “−” sign=cell toxicity or pro-inflammatory
testContext: 30 μM
measurementType: Viability

compound="CC1(C)[C@@H]2CC[C@H](CN3C(=O)C4C5C=CC(C5)C4C3=O)[C@H]1C2 (stereo partly drawn) [Compound 113]" valueobserved=−
compound=O=C1c2ccccc2CN1c1nc2ccc(C(F)(F)F)cc2s1 valueobserved=NS
compound="O=C1CCC(N2C(=O)c3ccncc3C2=O)C(=O)N1 (stereo not drawn)" valueobserved=NS
compound="Nc1cccc2c1CN(C1CCC(=O)NC1=O)C2=S (stereo not drawn)" valueobserved=−
compound=O=C1c2cccc([N+](=O)[O-])c2CN1[C@H]1C[C@H]2CC[C@@H]1C2 valueobserved=NS
compound=C[C@H]1[C@H](N2Cc3c(cccc3[N+](=O)[O-])C2=O)C[C@@H]2C[C@H]1C2(C)C valueobserved=NS
compound="O=C1c2cccc([N+](=O)[O-])c2C(=O)N1C1CCC(=S)NC1=S (stereo not drawn)" valueobserved=NS
compound=CC1(C)[C@@H]2CC[C@]1(C)[C@@H](N1C=C3C(=CC=C/C3=N\OO)C1=O)C2 valueobserved=NS

Alright, here's another compound for you.
Entry O=C1c2cccc([N+](=O)[O-])c2CN1C12CC3CC(CC(C3)C1)C2 ; Viability = NS

* * *

Tested on: RAW 264.7 cells
protocol: Cell viability (CellTiter 96 AQueous One) of LPS-challenged RAW 264.7 cells
Assay type: cell-based, mouse
Design: key: NS=not significant; a “+” sign=anti-inflammatory or increased cell numbers; a “−” sign=cell toxicity or pro-inflammatory
testContext: 30 μM
measurementType: Viability

See these solved cases before continuing.
compound="CC(N1Cc2ccccc2C1=O)C12CC3CC(CC(C3)C1)C2 (centres unmarked) [Compound 71]" valueobserved=−
compound="O=C1c2ccccc2CN1CC12CC3CC(CC(C3)C1)C2 [Compound 70]" valueobserved=NS
compound="CC1(C)S[C@@H]2[C@H](N3C(=O)c4ccccc4C3=O)C(=O)N2[C@H]1C(=O)O [Compound 64]" valueobserved=NS
compound="CC1(C)[C@@H]2CC[C@]1(C)[C@@H](N1Cc3c(cccc3[N+](=O)[O-])C1=O)C2 [Compound 96]" valueobserved=NS
compound="CC1(C)[C@@H]2CC[C@]1(C)[C@H](N1Cc3c(cccc3[N+](=O)[O-])C1=O)C2 [Compound 94]" valueobserved=−

Viability for O=C1c2cccc([N+](=O)[O-])c2CN1CC12CC3CC(CC(C3)C1)C2 [Compound 78] is −

Input O=C1CCC(N2C(=O)c3cccnc3C2=O)C(=O)N1 (centres unmarked) [Compound 57] . Output Viability: NS

Entry CC1(C)[C@@H]2CC[C@]1(C)[C@H](N1Cc3c(N)cccc3C1=O)C2 [Compound 95] ; Viability = +
